# Test system: Aureobasidium pullulans IFO 6353 (Ap-1)
# assay-remarks: Fragrant vapor antifungal activity (impregnated paper disc on cover of inverted agar plate)
# Type: cell-based
# condition-label: 20 μl fragrance on disc, 72 hours at 27° C., compared with control
measured-property: Growth: Growth status outside the inhibition zone

compound: CCC/C=C/C=O [Trans-2-hexenal]
result: none
--
compound: CC(C)=CCCC(C)CC=O (stereo not shown)
result: sparse
--
compound: Cc1ccc(C(C)C)c(O)c1
result: sparse
--
compound: CC=Cc1ccc(O)c(OC)c1
result: good

Aureobasidium pullulans IFO 6353 (Ap-1) data for CCCCCCCCCCO ; its Growth: Growth status outside the inhibition zone: slight

Record C=CCc1ccc(O)c(OC)c1 has Aureobasidium pullulans IFO 6353 (Ap-1) Growth: Growth status outside the inhibition zone equal to good

The observed Growth: Growth status outside the inhibition zone for CC(C=O)Cc1ccc2c(c1)OCO2 (stereo not shown) when tested with Aureobasidium pullulans IFO 6353 (Ap-1) stands at weak

###

# System: Cladosporium cladosporioides IFO 6348 (Cc-1)
# assay-remarks: Fragrant vapor antifungal activity (impregnated paper disc on cover of inverted agar plate)
# Type: cell-based
# condition-label: 20 μl fragrance (or 40 μl of 50% ethanol solution) on disc, 72 hours at 27° C., >85 = growth inhibited over entire plate
I'd appreciate it if you could supply IZ: Diameter of growth inhibition zone values for the items below.

IZ: Diameter of growth inhibition zone in this record for CC(C=O)Cc1ccc2c(c1)OCO2 (centres unmarked) : 0 mm

Input C=CCCCCCCCCC=O . Output IZ: Diameter of growth inhibition zone: >85 mm

For COc1ccc(C=O)cc1 the molecule record lists IZ: Diameter of growth inhibition zone as >85 mm

IZ: Diameter of growth inhibition zone recorded for this molecule, CCCCCCCC=O , is >85 mm

// field: IZ: Diameter of growth inhibition zone; key: CC(C)=CCCC(C)=CC=O ; value = >85 mm

Sample CC(C)=CCC/C(C)=C/CO ; IZ: Diameter of growth inhibition zone observed: 70 mm

Record summary for CCCCCCCC/C=C/C=O [Trans-2-undecenal] : reported IZ: Diameter of growth inhibition zone = >85 mm

# IZ: Diameter of growth inhibition zone (molecule: C=CCCCCCCCCO ) is >85 mm

GET /value?item= C=CCc1ccc(O)c(OC)c1 &field=IZ: Diameter of growth inhibition zone returns 70 mm

Note to self: IZ: Diameter of growth inhibition zone recorded for CC(C)c1ccc(C=O)cc1 was >85 mm

The value of IZ: Diameter of growth inhibition zone measured for the molecule Cc1ccc(C(C)C)c(O)c1 turned out to be >85 mm

###

# System: Aureobasidium pullulans IFO 6353 (Ap-1)
# assay-remarks: Fragrant vapor antifungal activity (impregnated paper disc on cover of inverted agar plate)
# Format: cell-based
# condition-label: 20 μl fragrance on disc, 72 hours at 27° C., compared with control
measured-property: Growth: Growth status outside the inhibition zone

Example cases with answers are listed next.
molecule: C=CCCCCCCCCO
result: weak

molecule: CC(C)=CCCC(C)CCO (stereo not drawn)
result: weak

molecule: CCCCCCCC=O
result: none

molecule: CCCCCCCC/C=C/C=O [Trans-2-undecenal]
result: none

molecule: O=CCCc1ccccc1
result: none

// sample CC(C)=CCCC(C)=CC=O , its Growth: Growth status outside the inhibition zone was none

Summary for this molecule, C=C(C)C1CC=C(C=O)CC1 (stereo not drawn) : Growth: Growth status outside the inhibition zone is none
